Method notes: NCI Yeast Anticancer Drug Screen. Data for the mec2-1 strain (AID 157)
Condition context: S. cerevisiae mec2-1 strain, at 50.0 µM, active compounds read high
The panel holds about 79,000 compounds, 15% with a hit somewhere; the sample as a whole holds those more often.
Attribute: growth inhibition
Reported metric: growth inhibition (%)

>>> df
                                    molecule  reported_measurement
 0                            CC(=O)c1ccccc1                 -12.9
 1  CN1C(=O)CC(NC(=O)CNC(=O)c2ccccc2)C1=O (centres undefined)                    16
 2  Cn1c(=O)c2c(n(C)c1=O)n1c(=O)c3ccccc3nc1n2C                   2.3
 3  COc1ccc(CN2CCCN(Cc3ccc(OC)cc3OC)C2c2ccc(N(C)C)cc2)c(OC)c1                  14.5
 4                 S=C(NCN1CCOCC1)NCN1CCOCC1                  5.75
 5  Nc1nc(Cc2ccccc2)c(CCCNc2ccccc2)c(=O)[nH]1                  5.05
 6  Cc1ccc(NC(=O)CCC(=O)C(C#N)c2ccc(Cl)cc2)cc1C (centres undefined)                 -7.95
 7  CC(Nc1ccc(Br)cc1[N+](=O)[O-])C(=O)O (centres undefined)                  11.6
 8            Cc1cc(C)c(C(=O)CSC(=N)N)c(C)c1                  11.3
 9                               NCCNCCCNCCN                  -2.4
10                      COc1nc(NCCO)nc(OC)n1                  -2.5
11  Cc1ccc(NC(=O)/C(CC(=O)c2sc(Nc3ccccc3Cl)nc2C)=N\Nc2ccc([N+](=O)[O-])cc2[N+](=O)[O-])c(C)c1                  17.1
12    NNC(=O)CC(N)C(=O)O (centres undefined)                   4.4
13          O=C(O)CSc1nc2cc(Cl)c(Cl)cc2[nH]1                 -6.75
14  CCCCc1c2c(nn1C(C)=O)C(=O)C=C(Nc1ccccc1)C2=O                  21.8
15       COCc1cc(CC(C)=O)nc(C/C=N/NC(N)=O)n1                 -10.4
16  CC(=O)OCC(OC(C)=O)C(OC(C)=O)C(OC(C)=O)C(O)CO (centres undefined)                  18.8
17                 CSc1ncc(CO)c(NC(C)(C)C)n1                   5.7
18                     CN(C)C=Nc1cccc2c1NSN2                  -6.4
19  CCC(/C=C/C(C)C1CCC2C3CC=C4CC(OC(=O)Nc5ccccc5)CCC4(C)C3CCC12C)C(C)C (centres undefined)                   2.1
20  NC(CCOCCP(=O)(O)CCC1C=CC=CC1)C(=O)O (centres undefined)                 -31.7
21  O=C(Cc1ccccc1)NN1C(=O)/C(=C\c2ccccc2O)SC1=Nc1ccccc1                  -6.3
22  O=S(=O)(/C=C/c1ccc(Cl)cc1Cl)Cc1ccccc1CS(=O)(=O)/C=C/c1ccc(Cl)cc1Cl                   5.3
23  CC1=NC(=O)C(C)(c2ccccc2)N1CCc1ccccc1 (centres undefined)                   8.4
24             CCC/C=N/NS(=O)(=O)c1ccc(C)cc1                  15.7
25  C=C1c2nc3ccccc3n2C=C(c2ccc(Cl)cc2)N1c1ccc(OC)cc1                  23.4
26  CCOC(=O)C(CC(c1ccc2c(c1)OCO2)C(C(=O)OCC)[N+](=O)[O-])C(=O)OCC (centres undefined)                  23.9
27                     CN(Cc1ccccc1)c1ccccn1                 -21.8
28                         C=CCCCCCCCCCCCCCC                  -2.3
29  O=C(O)C(Cc1ccccc1)NS(=O)(=O)Cc1ccccc1 (centres undefined)                 -8.45
30                    CC(=C(C#N)C#N)c1ccccc1                   2.5
31  CCC(=O)NCCCCC1CCCC[N+]1(C)C (centres undefined)                 -11.9
32            CC(=O)Nc1ccc(N)cc1-c1ccc(N)cc1                 -16.9
33                    CNS(=O)(=O)c1ccc(N)cc1                  -5.6
34                     Cc1nc(Cl)c(Cl)c(Cl)n1                  -7.9
35  O=[N+]([O-])/C(Cl)=C(/C(Cl)=C(Cl)Cl)N1CCOCC1                   4.8
36  CCCCOC(=O)NC(=O)c1cc2ccc(N(CC)CC)cc2oc1=O                   3.5
37  COc1cc(OC)c(OC)cc1/C=C/c1cc[n+](C)c2ccccc12                 -6.35
38  COc1ccc(COCC[C@H](C)OC2OC(CO)C(O)C(O)C2O)cc1 (some centres undefined)                 -8.75
39  OC1C2CCC(C2)C1CN1CCOCC1 (centres undefined)                 -3.35
40  Nc1c2cc3ccc2nc2ccc(cc12)OCCOCCOCCOCCOCCOCCO3                 -16.1
41    NC(=O)c1ccc[n+](CCCCCCCCCCC(=O)[O-])c1                  7.05
42  Nc1nc(SCC(=O)O)[nH]c(=O)c1NS(=O)(=O)c1ccccc1[N+](=O)[O-]                  -4.1
43       c1ccc(N2C3Sc4ncccc4C2Sc2ncccc23)cc1                   2.8
44  CCN(CC)CCNc1cc(C)nc(/N=C(\N)Nc2ccc(Cl)cc2)n1                  1.05
45  CNC(=S)N/N=C/c1nc2ccccc2c(=O)n1-c1ccc(Cl)cc1                  0.75
46                     COP(=O)(O)OP(=O)(O)OC                 -29.5
47      CCCCCCCCCCCCCCCCc1c(C)nc(N(C)C)oc1=O                    23
48             O=S(=O)(Nc1nccs1)c1ccc(Cl)cc1                    46
